assay: Compound was tested for inhibitory activity against fucosyltransferase
measurementType: IC50 (mM)
Provide the reading as a plain figure in mM.

Reported IC50 for OC[C@@H]1NC[C@@H](O)[C@@H](O)[C@@H]1O[C@@H]1O[C@@H](CO)[C@H](O)[C@H](O)[C@@H]1O : what is it?
40
